- Assay name: In vitro skin permeation, Franz diffusion cells
- Measurement parameters: n = 3
# LT, lag time listing for each entry below
Express the result in h but write the number alone.

Worked cases, answers included:
CC(C)Cc1ccc(C(C)C(=O)O)cc1.CC(C)OC(=O)[C@@H](N)CO [[L-SerOiPr][IBU], L-serine isopropyl ester ibuprofenate] :: 1.160
CC(C)Cc1ccc(C(C)C(=O)O)cc1.CC(C)OC(=O)[C@@H](N)Cc1ccccc1 [[L-PheOiPr][IBU]] :: 1.368
CC(C)C[C@H](N)C(=O)OC(C)C.CC(C)Cc1ccc(C(C)C(=O)O)cc1 [[L-LeuOiPr][IBU], L-leucine isopropyl ester ibuprofenate] :: 1.742

# next compound below
Answer with the recorded LT, lag time for the compound listed here: CC(C)Cc1ccc(C(C)C(=O)O)cc1.CC(C)OC(=O)[C@@H](N)CCCCN [[L-LysOiPr][IBU], L-lysine isopropyl ester ibuprofenate]
1.423

* * *

- Assay name: n-octanol-water partition coefficient, shake flask method
- Measurement parameters: shake flask, 25 °C
Experimental endpoint: Log P (n-octanol-water partition coefficient)
Just the number.

Worked cases, answers included:
CC(C)C[C@H](N)C(=O)OC(C)C.CC(C)Cc1ccc(C(C)C(=O)O)cc1 [[L-LeuOiPr][IBU], L-leucine isopropyl ester ibuprofenate] :: 1.391
CC(C)Cc1ccc(C(C)C(=O)O)cc1.CC(C)OC(=O)C[C@H](N)C(=O)OC(C)C [[L-Asp(OiPr)2][IBU]] :: 1.506
CC(C)Cc1ccc(C(C)C(=O)O)cc1.CC(C)OC(=O)[C@@H](N)[C@@H](C)O [[L-ThrOiPr][IBU], L-threonine isopropyl ester ibuprofenate] :: 0.998
CC(C)Cc1ccc(C(C)C(=O)O)cc1.CC(C)OC(=O)[C@@H](N)CS [[L-CysOiPr][IBU], L-cysteine isopropyl ester ibuprofenate] :: 1.430
CC(C)Cc1ccc(C(C)C(=O)O)cc1.CC[C@H](C)[C@H](N)C(=O)OC(C)C [[L-IleOiPr][IBU]] :: 1.652

Answer with the recorded Log P (n-octanol-water partition coefficient) for the molecule listed here: CC(C)Cc1ccc(C(C)C(=O)O)cc1.CC(C)OC(=O)[C@@H](N)Cc1ccccc1 [[L-PheOiPr][IBU]]
2.207

Answer with the recorded Log P (n-octanol-water partition coefficient) for the molecule listed here: CC(C)Cc1ccc(C(C)C(=O)O)cc1.CC(C)OC(=O)[C@H](C)N [[L-AlaOiPr][IBU], L-alanine isopropyl ester ibuprofenate]
0.719

Answer with the recorded Log P (n-octanol-water partition coefficient) for the molecule listed here: CC(C)Cc1ccc(C(C)C(=O)O)cc1.CC(C)OC(=O)[C@@H](N)CO [[L-SerOiPr][IBU], L-serine isopropyl ester ibuprofenate]
0.775

* * *

- Assay name: Solubility (saturation concentration) in deionised water and PBS pH 7.4, HPLC
- Measurement parameters: PBS pH 7.4, 32 °C; g of active compound (IBU)
Threshold check on Solubility in Phosphate Buffer pH = 7.4: strictly below 2 g IBU∙dm^−3 is t; on or above 2 g IBU∙dm^−3 is f.

Take a look at these entries with their results.
CC(C)Cc1ccc(C(C)C(=O)O)cc1.CC(C)OC(=O)[C@@H](N)CS [[L-CysOiPr][IBU], L-cysteine isopropyl ester ibuprofenate] :: f
CC(C)Cc1ccc(C(C)C(=O)O)cc1.CC(C)OC(=O)[C@@H](N)Cc1ccccc1 [[L-PheOiPr][IBU]] :: t
CC(C)Cc1ccc(C(C)C(=O)O)cc1.CC(C)OC(=O)C[C@H](N)C(=O)OC(C)C [[L-Asp(OiPr)2][IBU]] :: t
CC(C)Cc1ccc(C(C)C(=O)O)cc1.CC[C@H](C)[C@H](N)C(=O)OC(C)C [[L-IleOiPr][IBU]] :: f
CC(C)Cc1ccc(C(C)C(=O)O)cc1.CC(C)OC(=O)[C@@H](N)CCCCN [[L-LysOiPr][IBU], L-lysine isopropyl ester ibuprofenate] :: f

In the record for CC(C)Cc1ccc(C(C)C(=O)O)cc1.CC(C)OC(=O)[C@H](C)N [[L-AlaOiPr][IBU], L-alanine isopropyl ester ibuprofenate] , is Solubility in Phosphate Buffer pH = 7.4 less than 2 g IBU∙dm^−3?
f

In the record for CC(C)C[C@H](N)C(=O)OC(C)C.CC(C)Cc1ccc(C(C)C(=O)O)cc1 [[L-LeuOiPr][IBU], L-leucine isopropyl ester ibuprofenate] , is Solubility in Phosphate Buffer pH = 7.4 less than 2 g IBU∙dm^−3?
f

In the record for CC(C)Cc1ccc(C(C)C(=O)O)cc1.CC(C)Cc1ccc(C(C)C(=O)O)cc1.CC(C)OC(=O)[C@@H](N)CCCCN [[L-LysOiPr][IBU]2] , is Solubility in Phosphate Buffer pH = 7.4 less than 2 g IBU∙dm^−3?
f

* * *

- Assay name: Solubility (saturation concentration) in deionised water and PBS pH 7.4, HPLC
- Measurement parameters: water, 25 °C; g of compound
Experimental endpoint: Solubility in Water (g∙dm^−3)
Express the result in g∙dm^−3 but write the number alone.

Worked cases, answers included:
CC(C)Cc1ccc(C(C)C(=O)O)cc1.CC(C)Cc1ccc(C(C)C(=O)O)cc1.CC(C)OC(=O)[C@@H](N)CCCCN [[L-LysOiPr][IBU]2] :: 5.861
CC(C)Cc1ccc(C(C)C(=O)O)cc1.CC(C)OC(=O)[C@@H](N)CS [[L-CysOiPr][IBU], L-cysteine isopropyl ester ibuprofenate] :: 2.048
CC(C)Cc1ccc(C(C)C(=O)O)cc1.CC[C@H](C)[C@H](N)C(=O)OC(C)C [[L-IleOiPr][IBU]] :: 2.729
CC(C)Cc1ccc(C(C)C(=O)O)cc1.CC(C)OC(=O)[C@@H](N)Cc1ccccc1 [[L-PheOiPr][IBU]] :: 0.595

Answer with the recorded Solubility in Water for the molecule listed here: CC(C)Cc1ccc(C(C)C(=O)O)cc1.CC(C)OC(=O)[C@@H](N)CCCCN [[L-LysOiPr][IBU], L-lysine isopropyl ester ibuprofenate]
9.6534

Answer with the recorded Solubility in Water for the molecule listed here: CC(C)Cc1ccc(C(C)C(=O)O)cc1.CC(C)OC(=O)[C@H](C)N [[L-AlaOiPr][IBU], L-alanine isopropyl ester ibuprofenate]
4.030

Answer with the recorded Solubility in Water for the molecule listed here: CC(C)Cc1ccc(C(C)C(=O)O)cc1.CC(C)OC(=O)C[C@H](N)C(=O)OC(C)C [[L-Asp(OiPr)2][IBU]]
2.380

Answer with the recorded Solubility in Water for the molecule listed here: CC(C)C[C@H](N)C(=O)OC(C)C.CC(C)Cc1ccc(C(C)C(=O)O)cc1 [[L-LeuOiPr][IBU], L-leucine isopropyl ester ibuprofenate]
1.255

* * *

- Measurement parameters: 24 h penetration, n = 3
Experimental endpoint: Accumulation in the skin (µg IBU g^−1)
Express the result in µg IBU g^−1 but write the number alone.

CC(C)Cc1ccc(C(C)C(=O)O)cc1.CC(C)Cc1ccc(C(C)C(=O)O)cc1.CC(C)OC(=O)[C@@H](N)CCCCN [[L-LysOiPr][IBU]2] :: 392.593
CC(C)Cc1ccc(C(C)C(=O)O)cc1.CC(C)OC(=O)C[C@H](N)C(=O)OC(C)C [[L-Asp(OiPr)2][IBU]] :: 406.961
CC(C)Cc1ccc(C(C)C(=O)O)cc1.CC(C)OC(=O)[C@@H](N)CO [[L-SerOiPr][IBU], L-serine isopropyl ester ibuprofenate] :: 407.652

Answer with the recorded Accumulation in the skin for the molecule listed here: CC(C)Cc1ccc(C(C)C(=O)O)cc1.CC[C@H](C)[C@H](N)C(=O)OC(C)C [[L-IleOiPr][IBU]]
646.293

Answer with the recorded Accumulation in the skin for the molecule listed here: CC(C)Cc1ccc(C(C)C(=O)O)cc1.CC(C)OC(=O)[C@@H](N)[C@@H](C)O [[L-ThrOiPr][IBU], L-threonine isopropyl ester ibuprofenate]
621.866

* * *

- Assay name: Thermal stability (TG/DTG): decomposition onset and maximum mass-loss rate temperature
- Measurement parameters: TG
- Experimental: In Figure 5, the thermal stability of ibuprofen and amino acid isopropyl ester ibuprofenates was determined and compared. All TG, DTG, and c-DTA curves are in the Supplementary Materials (Figures S87–S100). The decomposition onset temperature (Tonset) and the temperature of the maximum rate of mass loss (Tmax) were determined.
Experimental endpoint: Tonset, the onset temperature of the thermal degradation

Worked cases, answers included:
CC(C)Cc1ccc(C(C)C(=O)O)cc1.CC(C)OC(=O)[C@@H](N)CCCCN [[L-LysOiPr][IBU], L-lysine isopropyl ester ibuprofenate] :: 177.9 °C
CC(C)Cc1ccc(C(C)C(=O)O)cc1.CC(C)OC(=O)[C@@H](N)CO [[L-SerOiPr][IBU], L-serine isopropyl ester ibuprofenate] :: 139.2 °C
CC(C)Cc1ccc(C(C)C(=O)O)cc1.CC(C)Cc1ccc(C(C)C(=O)O)cc1.CC(C)OC(=O)[C@@H](N)CCCCN [[L-LysOiPr][IBU]2] :: 183.7 °C

# next compound below
Answer with the recorded Tonset, the onset temperature of the thermal degradation for the compound listed here: CC(C)Cc1ccc(C(C)C(=O)O)cc1 (racemic) [IBU, reference compound]
189.8 °C
